Molecular target: T1, human connexin36 (Cx36) (human, UniProt Q9UKL4 1-321)
T1 construct: whole, on cells; Hemichannel expressed in HEK 293FT cells for FETCH; also called GJD2; not shown: C-terminal fluorescent protein fusion (mEmerald or RFP670 in FETCH)
T1 sequence (looked up): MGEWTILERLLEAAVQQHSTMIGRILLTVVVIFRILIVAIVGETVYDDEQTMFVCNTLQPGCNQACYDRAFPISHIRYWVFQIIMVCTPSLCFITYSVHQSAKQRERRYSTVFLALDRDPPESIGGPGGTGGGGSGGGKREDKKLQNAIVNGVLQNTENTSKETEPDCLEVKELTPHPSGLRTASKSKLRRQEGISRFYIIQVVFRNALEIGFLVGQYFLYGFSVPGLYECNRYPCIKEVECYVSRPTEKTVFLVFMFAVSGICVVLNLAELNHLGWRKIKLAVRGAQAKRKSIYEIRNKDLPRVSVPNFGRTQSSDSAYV
Assay: heterotypic FETCH
REPORTED ENDPOINT: binding result

1) Cx35E224K (Morone americana Cx35 mutant E224K) (other, Extracellular loop mutant of the screening library; not shown: C-terminal fluorescent protein fusion (mEmerald or RFP670 in FETCH)) MGEWTILERLLEAAVQQHSTMIGRILLTVVVIFRILIVAIVGETVYDDEQTMFVCNTLQPGCNQACYDKAFPISHIRYWVFQIIMVCTPSLCFITYSVHQSAKQKERRYSTVYLTLDKDQDSLKRDESKKIKNTIVNGVLQNTENSTKEAEPDCLEVKEIPNSAMRTTKSKMRRQEGISRFYIIQVVFRNALEIGFLVGQYFLYGFNVPSVYECDRYPCIKDVKCYVSRPTEKTVFLVFMFAVSGFCVVLNLAELNHLGWRKIKTAVRGVQARRKSIYEIRNKDLPRMSVPNFGRTQSSDSAYV = no binding
2) Cx35E224R (Morone americana Cx35 mutant E224R) (other, Extracellular loop mutant of the screening library; not shown: C-terminal fluorescent protein fusion (mEmerald or RFP670 in FETCH)) MGEWTILERLLEAAVQQHSTMIGRILLTVVVIFRILIVAIVGETVYDDEQTMFVCNTLQPGCNQACYDKAFPISHIRYWVFQIIMVCTPSLCFITYSVHQSAKQKERRYSTVYLTLDKDQDSLKRDESKKIKNTIVNGVLQNTENSTKEAEPDCLEVKEIPNSAMRTTKSKMRRQEGISRFYIIQVVFRNALEIGFLVGQYFLYGFNVPSVYECDRYPCIKDVRCYVSRPTEKTVFLVFMFAVSGFCVVLNLAELNHLGWRKIKTAVRGVQARRKSIYEIRNKDLPRMSVPNFGRTQSSDSAYV = no binding
3) Cx34.7E214K/E223K (designer connexin Cx34.7M1, Morone americana Cx34.7 with E214K and E223K) (other, Rationally designed hemichannel; In C. elegans expressed as GFP or mCherry fusion; in mice from AAV9 as mEmerald or mApple fusion; not shown: C-terminal fluorescent protein fusion (mEmerald or RFP670 in FETCH)) MGEWTILERLLEAAVQQHSTMIGRILLTVVVIFRILIVAIVGETVYEDEQAMFICNTLQPGCNQACYDKAFPISHIRYWVFQIILVCTPSLCFITYSVHQSAKQKDRRYSFLYPIMERDYGGRDGARKLRNINGILVQHGGDGGGGKEEPDCLEVKEIPNAPRGLTHGKSSKVRRQEGISRFYIIQVVFRNALEIGFLAGQYFLYGFSVPGIFKCDRYPCLKKVECYVSRPTEKTVFLVFMFAVSGICVVLNLAELNHLGWRKIKAAIRGVQARRKSICEIRKKDMAHLSQPPNLGRTQSSESAYV = no binding
